- test details: In vitro cell dose-response (resazurin viability) in 2D culture, HaCaT
- Format: cell-based, human
- measurement context: human, HaCaT cells (transformed keratinocytes), 2D culture; concentrations at 0.01 µM and 0.1 µM
recorded endpoint: viability at 48 h

# compound, value measured
records = [
    ("CCOC(=O)C1=CCCC[C@H]1S(=O)(=O)Nc1ccc(F)cc1Cl [resatorvid]", "~100%"),
]

====

- test details: In vitro cell dose-response (resazurin viability) in 2D culture, NHEK
- Type: cell-based, human
- measurement context: human; all concentrations (0.01-1000 µM); read-out: viability of NHEK cells

# smiles entry, viability at 48 h
data = [
    ("CCOC(=O)C1=CCCC[C@H]1S(=O)(=O)Nc1ccc(F)cc1Cl", "~100%"),
]
